Let's look at some compounds and their measured TGI.
Tested on: IGROV1 ovarian
Assay: NCI tumour cell line growth inhibition, 48 h
Where a SMILES comes first, the peptide text is derived from it. The star is where a group is joined. Palmitoyl = CCCCCCCCCCCCCCCC(=O)*
Number only, in µM; omit the unit.

Recorded TGI, per entry:
{"compound": "OC(C#CCN1CCCC1)(c1ccccc1)c1ccccc1Cl (configuration not stated)", "testReadout": "TGI", "recordedValue": 73.6}
{"compound": "c1ccc(C(C(=Nc2ccc(Cc3ccc(N=C(C(c4ccccc4)c4ccccc4)N4CC4)cc3)cc2)N2CC2)c2ccccc2)cc1", "testReadout": "TGI", "recordedValue": 2.41}

[ask] Given the compound CCCCCCCCCCCCCCCC(=O)N1CCCC1C(=O)NCC(=O)NC(Cc1ccccc1)C(=O)N1CCCC1C(=O)NC(CO)C(=O)NC(Cc1ccc(O)cc1)C(=O)NC(CCCCN)C(=O)NC(CC(C)C)C(=O)NC(CCCN=C(N)N)C(=O)N1CCCC1C(=O)NCC(N)=O (configuration not stated) (Palmitoyl-PGFPSYKLRPG-NH2; configuration not given here) , what is its reported TGI?
[reply] 48.8

[ask] Given the compound CC1=C(C(=O)Nc2ccccc2)C(c2ccc(Cl)c(Cl)c2)C(C(=O)Nc2ccccc2)=C(C)N1 , what is its reported TGI?
[reply] 37.1

[ask] Given the compound COc1ccc2oc(=N)c(C(=O)Nc3ccccc3)cc2c1 , what is its reported TGI?
[reply] 97.4

[ask] Given the compound COc1cc(C2c3cc4c(cc3[C@@H](Nc3ccccc3)C3COC(=O)[C@H]23)OCO4)cc(OC)c1O (some centres not stated) , what is its reported TGI?
[reply] 17.5

[ask] Given the compound C=C(C)[C@@H]1CC[C@]2(CN)CC[C@]3(C)[C@H](CC[C@@H]4[C@@]5(C)CCCNC(C)(C)[C@@H]5CC[C@]43C)[C@@H]12 , what is its reported TGI?
[reply] 3.57
